Assay Details: Half life in Swiss mouse infected with Trypanosoma brucei brucei Squib 427 at 50 mg/kg, po bid for 5 days after 24 hrs by UPLC/MS/ESI analysis
Type: ADME, organism-based
Assay Conditions: in vivo
Test Readout: half-life (h)
Give the value in h but do not write h after it.

May I ask what half-life has been recorded for Nc1nc(Nc2ccc(F)cc2)nc(Oc2ccc(F)cc2)n1 ?
1.33

###

Assay Details: Drug uptake in Swiss mouse blood at 50 mg/kg, po administered as single dose after 0.25 hrs by UPLC/MS/ESI analysis
Type: ADME, organism-based
Assay Conditions: whole blood, read-out: Drug uptake
Test Readout: concentration at 0.25 h (ng/mL)
Give the value in ng/mL but do not write ng/mL after it.

May I ask what concentration at 0.25 h has been recorded for Nc1nc(Nc2ccc(F)cc2)nc(Oc2ccc(F)cc2)n1 ?
1320

###

Assay Details: Drug level in Swiss mouse blood infected with Trypanosoma brucei brucei Squib 427 at 50 mg/kg, po bid for 5 days measured after 1 hr after last dose by UPLC/MS/ESI analysis
Assay type: ADME, organism-based
Assay Conditions: whole blood, read-out: Drug uptake
Test Readout: concentration at 1 h (ng/mL)
Give the value in ng/mL but do not write ng/mL after it.

May I ask what concentration at 1 h has been recorded for Nc1nc(Nc2ccc(F)cc2)nc(Oc2ccc(F)cc2)n1 ?
3800

###

Assay Details: Protein binding in 10% FBS in Trypanosoma brucei culture medium assessed as drug recovery at 2 uM after 6 hrs by equilibrium dialysis and LC-MS analysis
Type: ADME, cell-free, Bos taurus, Serum
Assay Conditions: cattle, read-out: Drug recovery
Test Readout: recovery at 6 h, 2 µM
Put down the number, then write its unit next to it.

May I ask what recovery at 6 h, 2 µM has been recorded for Nc1nc(Nc2ccc(F)cc2)nc(Oc2ccc(F)cc2)n1 ?
96.1%

###

Assay Details: AUC (0 to >4 hrs) in Swiss mouse infected with Trypanosoma brucei brucei Squib 427 at 25 mg/kg, po administered as single dose by UPLC/MS/ESI analysis
Format: ADME, organism-based
Assay Conditions: in vivo
Test Readout: AUC at 4 h
Put down the number, then write its unit next to it.

May I ask what AUC at 4 h has been recorded for Nc1nc(Nc2ccc(F)cc2)nc(Oc2ccc(F)cc2)n1 ?
4710 ng·h/mL

###

Assay Details: Drug metabolism in mouse liver microsomes assessed as CYP450 mediated compound […] by measuring parent compound remaining at 5 uM after 60 mins in presence of NADPH by UPLC/MS/ESI analysis
Type: ADME
Assay Conditions: read-out: Stability
# Lookup of reported remaining at 1 h, 5 µM keyed by entry
Give the value in % but do not write % after it.

Cc1ccc(Oc2nc(N)nc(Nc3ccc(F)cc3)n2)cc1 : 10.5

May I ask what remaining at 1 h, 5 µM has been recorded for Cc1ccc(Oc2nc(N)nc(Nc3ccc(F)cc3)n2)c(Cl)c1 ?
1.4

May I ask what remaining at 1 h, 5 µM has been recorded for Cc1cc(C)c(Oc2nc(N)nc(Nc3ccc(F)cc3)n2)c(C)c1 ?
0.3

May I ask what remaining at 1 h, 5 µM has been recorded for Nc1nc(Nc2ccc(F)cc2)nc(Oc2ccc(F)cc2)n1 ?
74

###

Assay Details: Drug metabolism in human liver microsomes assessed as CYP450 mediated compound […] by measuring parent compound remaining at 5 uM after 60 mins in presence of NADPH by UPLC/MS/ESI analysis
Type: ADME
Assay Conditions: read-out: Stability
# Lookup of reported remaining at 1 h, 5 µM keyed by entry
Give the value in % but do not write % after it.

Some solved entries appear below for comparison.
Cc1ccc(Oc2nc(N)nc(Nc3ccc(F)cc3)n2)c(Cl)c1 : 67
Nc1nc(Nc2ccc(F)cc2)nc(Oc2ccc(F)cc2)n1 : 65
Cc1cc(C)c(Oc2nc(N)nc(Nc3ccc(F)cc3)n2)c(C)c1 : 13

// switching to the query compound
May I ask what remaining at 1 h, 5 µM has been recorded for Cc1ccc(Oc2nc(N)nc(Nc3ccc(F)cc3)n2)cc1 ?
113

###

Assay Details: Drug metabolism in human liver microsomes assessed as CYP450 mediated compound […] by measuring parent compound remaining at 5 uM after 30 mins in presence of NADPH by UPLC/MS/ESI analysis
Format: ADME
Assay Conditions: read-out: Stability
# Lookup of reported remaining at 0.5 h, 5 µM keyed by entry
Give the value in % but do not write % after it.

Cc1ccc(Oc2nc(N)nc(Nc3ccc(F)cc3)n2)c(Cl)c1 : 87
Cc1cc(C)c(Oc2nc(N)nc(Nc3ccc(F)cc3)n2)c(C)c1 : 33
Cc1ccc(Oc2nc(N)nc(Nc3ccc(F)cc3)n2)cc1 : 99

// switching to the query compound
May I ask what remaining at 0.5 h, 5 µM has been recorded for Nc1nc(Nc2ccc(F)cc2)nc(Oc2ccc(F)cc2)n1 ?
85

###

Assay Details: Drug uptake in Swiss mouse blood at 25 mg/kg, po administered as single dose after 0.5 hrs by UPLC/MS/ESI analysis
Format: ADME, organism-based
Assay Conditions: whole blood, read-out: Drug uptake
Test Readout: concentration at 0.5 h (ng/mL)
Give the value in ng/mL but do not write ng/mL after it.

May I ask what concentration at 0.5 h has been recorded for Nc1nc(Nc2ccc(F)cc2)nc(Oc2ccc(F)cc2)n1 ?
842

###

# Lookup of reported log10(IC50) keyed by entry
Test system: Trypanosoma brucei brucei
Assay Details: Antitrypanosomal activity against suramin-sensitive Trypanosoma brucei brucei Squib 427 after 72 hrs by resazurin dye-based fluorimetric analysis
Format: functional, organism-based
Assay Conditions: Squib 427, 72 h
// stored as log10 of IC50 expressed in µM

Some solved entries appear below for comparison.
Cc1cc(C)c(Oc2nc(Nc3ccc(F)cc3)nc(N3CCCCC3)n2)c(C)c1 : 0.91
Cc1cc(Br)c(Nc2nc(N)nc(Nc3ccc(F)cc3)n2)c(Br)c1 : 0.85
Cc1cc(C)c(Oc2nc(N)nc(Nc3ccc(F)cc3)n2)c(C)c1 : -0.52
Cc1ccc(Oc2nc(N)nc(Nc3ccc(F)cc3)n2)c(Cl)c1 : -0.30
Cc1ccc(Nc2nc(N)nc(Nc3c(Br)cc(C)cc3Br)n2)cc1 : 0.96

May I ask what log10(IC50) has been recorded for Cc1cc(C)c(Oc2nc(N)nc(Oc3ccc(F)cc3)n2)c(C)c1 ?
0.63

May I ask what log10(IC50) has been recorded for Nc1nc(Nc2ccc(F)cc2)nc(Oc2ccc(F)cc2)n1 ?
-0.22

May I ask what log10(IC50) has been recorded for Cc1ccc(Nc2nc(N)nc(Nc3ccc(C#N)cc3)n2)c(Cl)c1 ?
0.89

May I ask what log10(IC50) has been recorded for Cc1ccc(Oc2nc(N)nc(Nc3ccccc3)n2)cc1 ?
0.04

###

Assay Details: Drug uptake in Swiss mouse blood at 50 mg/kg, po administered as single dose after 0.5 hrs by UPLC/MS/ESI analysis
Assay type: ADME, organism-based
Assay Conditions: whole blood, read-out: Drug uptake
Test Readout: concentration at 0.5 h (ng/mL)
Give the value in ng/mL but do not write ng/mL after it.

May I ask what concentration at 0.5 h has been recorded for Nc1nc(Nc2ccc(F)cc2)nc(Oc2ccc(F)cc2)n1 ?
1780

###

Assay Details: Cmax in Swiss mouse infected with Trypanosoma brucei brucei Squib 427 at 25 mg/kg, po administered as single dose after 24 hrs by UPLC/MS/ESI analysis
Assay type: ADME, organism-based
Set-up: dose 25 mg/kg, route oral
Assay Conditions: in vivo
Test Readout: Cmax

May I ask what Cmax has been recorded for Nc1nc(Nc2ccc(F)cc2)nc(Oc2ccc(F)cc2)n1 ?
2690 ng/mL

###

Assay Details: Drug uptake in Swiss mouse blood at 25 mg/kg, po administered as single dose after 2 hrs by UPLC/MS/ESI analysis
Assay type: ADME, organism-based
Assay Conditions: whole blood, read-out: Drug uptake
Test Readout: concentration at 2 h (µg/mL)
Give the value in µg/mL but do not write µg/mL after it.

May I ask what concentration at 2 h has been recorded for Nc1nc(Nc2ccc(F)cc2)nc(Oc2ccc(F)cc2)n1 ?
1.32

###

Assay Details: Half life in Swiss mouse at 25 mg/kg, po administered as single dose after 24 hrs by UPLC/MS/ESI analysis
Format: ADME, organism-based
Assay Conditions: in vivo
Test Readout: half-life (h)
Give the value in h but do not write h after it.

May I ask what half-life has been recorded for Nc1nc(Nc2ccc(F)cc2)nc(Oc2ccc(F)cc2)n1 ?
4.14

###

Assay Details: Protein binding in 10% FBS in Trypanosoma brucei culture medium assessed as drug recovery at 10 uM after 6 hrs by equilibrium dialysis and LC-MS analysis
Type: ADME, cell-free, Bos taurus, Serum
Assay Conditions: cattle, read-out: Drug recovery
Test Readout: recovery at 6 h, 10 µM (%)
Give the value in % but do not write % after it.

May I ask what recovery at 6 h, 10 µM has been recorded for Nc1nc(Nc2ccc(F)cc2)nc(Oc2ccc(F)cc2)n1 ?
71.1
